Reference source: patent US20130289246A1

# target entity: recombinant soluble trimeric 1918 H1 HA (A/South Carolina/1/1918, wild type) (Influenza A virus A/South Carolina/1/1918 (H1N1)) (UniProt Q9WFX3)
# Sequence (Q9WFX3 18-529): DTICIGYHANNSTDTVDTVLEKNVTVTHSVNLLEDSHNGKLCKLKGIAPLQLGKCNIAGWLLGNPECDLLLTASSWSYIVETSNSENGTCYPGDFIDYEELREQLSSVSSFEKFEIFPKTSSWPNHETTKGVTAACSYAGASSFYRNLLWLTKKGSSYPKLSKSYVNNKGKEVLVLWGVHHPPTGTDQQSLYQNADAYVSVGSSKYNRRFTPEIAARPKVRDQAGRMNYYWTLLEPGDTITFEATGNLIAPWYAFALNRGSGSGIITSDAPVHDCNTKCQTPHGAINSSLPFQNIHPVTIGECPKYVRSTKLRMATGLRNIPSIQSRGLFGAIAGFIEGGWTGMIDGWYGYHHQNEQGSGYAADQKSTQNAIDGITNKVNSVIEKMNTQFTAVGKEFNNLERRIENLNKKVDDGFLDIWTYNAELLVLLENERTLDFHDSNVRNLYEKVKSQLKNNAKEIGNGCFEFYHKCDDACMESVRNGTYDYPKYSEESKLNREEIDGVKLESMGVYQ
# protocol summary: ELISA, supernate
For each entry below, report its OD value.
Give bare numbers, in OD.

Please review the following examples before continuing.
binder	measured metric	u	assay value
mAb 3J10 (antibody, V domains shown) VH: EVQLVESGGGVVQPGRSLRLSCAASGFSFSNYAMHWVRQAPGKGLEWVALISFDGSDKYYADSVKGRFTMSRDNSKNTLYLQMNSLRAEDTAVYYCARDEPYCGGDCFAFDVWGQGTMVTVS VL: QSVLTQPPSVSGAPGQRVTISCTGSSSNIGAGYDVHWYQQLPGTAPKLLIYANNNRPSGVPDRFSGSKSGTSASLAITGLQAEDEADYYCQSYDSSLSGGVFGTGTTVTVLG	OD	OD	0.069
mAb 5I17 (antibody, V domains shown) VH: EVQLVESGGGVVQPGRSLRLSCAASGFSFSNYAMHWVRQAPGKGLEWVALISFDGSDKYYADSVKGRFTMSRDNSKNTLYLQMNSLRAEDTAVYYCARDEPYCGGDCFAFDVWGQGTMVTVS VL: DIQLTQSPSSLSASAGDRVSMTCRASQIISSSLNWYQQKPGKAPKLLIYAASNLQSGVPSRFSGSGSGTDFTLTISSLQPEDFATYYCQQSYSTPPELTFGGGTKVDIKR	OD	OD	0.495
mAb 8F24 (antibody, V domains shown) VH: EVQLLESGGGLVQPGGSLRLSCAASGFAFSSYGMSWVRQAPGKGLEWVSAFSGSGTSTYYADSVKGRFTISRDKSKNTLYLQMNSLRAEDTAIYYCAKPPGPYIVVAGLFENWGRGTLVTVS VL: EIVMTQSPATLSVSPGERVTLSCRASQSITDGLAWYQQKSGQAPRLLIYGASTRATGIPARFSGSGSGTEFTLTISSLQSEDFAVYYCQQYNNWPPVTFGQGTKVEIKR	OD	OD	0.209

Q: Look up OD: mAb 25F7 (antibody, V domains shown) VH: EVQLLESGGGLVQPGGSLRLSCAASGFAFSSYGMSWVRQAPGKGLEWVSAFSGSGTSTYYADSVKGRFTISRDKSKNTLYLQMNSLRAEDTAIYYCAKPPGPYIVVAGLFENWGRGTLVTVS VL: QSVLTQPPSVSGAPGQRVTISCTGTSSNIGAGYEVHWYQQLPGTAPKLIINANTNRPSGVPDRFSGSQSGTSASLAITGLRAEDEADYYCQSFDSSLSGWLFGGGTKLTVLG
A: 0.075
